FYI, the data here is from paper PMC9604462.

# STUDY SYSTEM: human Cu/Zn superoxide dismutase SOD1, RED-NHS labeled (human, UniProt P00441 1-154)
# Sequence (P00441 whole entry): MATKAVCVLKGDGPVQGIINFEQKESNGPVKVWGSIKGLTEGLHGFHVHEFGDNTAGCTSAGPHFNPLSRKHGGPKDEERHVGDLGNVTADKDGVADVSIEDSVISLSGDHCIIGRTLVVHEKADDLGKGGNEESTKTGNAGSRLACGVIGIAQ
# METHOD: MST; 500 nM SOD1; DNA two-fold dilutions from 20 uM; FRET: 20 mM Tris-HCl pH 7.4, 37 C, 2 h; MST: 10 mM PBS pH 7.4, 0.05% Tween, room temperature, 5 min; SAXS: 100 uM bovine SOD1 and dsDNA, buffer not given in material
# CONDITION DETAILS: protein: recombinant; tags: N-terminal His tag; RED-NHS dye; chain copies: 2; blunt

- BINDER: "dsDNA (dsDNA) DNA 1: ATGGAATGGAAT DNA 2: ATTCCATTCCAT"
  UNITS SYMBOL: "µM"
  Kd: 0.155
